target: Gal-1 (Homo sapiens); construct: made in house; host or cells: E. coli BL21(DE3); assay: Pull-down assay with immobilized protein and LSM libraries; type: binding; conditions: H14 library; 1:1 binding assumed; read-out: Surface mapping KD (apparent)
Sequence (P09382 whole entry): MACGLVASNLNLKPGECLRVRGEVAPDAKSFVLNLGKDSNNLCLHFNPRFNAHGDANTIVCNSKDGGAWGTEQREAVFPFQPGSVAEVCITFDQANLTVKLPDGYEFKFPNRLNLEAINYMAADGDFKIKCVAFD
measured-quantity: Kd

Example entries and their recorded answers appear below.
NC(=O)C[C@@H](CC(=O)N[C@H]1CCCC[C@@H]1C(=O)N[C@H]1CCCC[C@@H]1C(=O)N[C@@H](CO)CC(=O)N[C@H]1CCCC[C@@H]1C(N)=O)NC(=O)[C@H]1CCCC[C@@H]1N
310 µM
CC[C@H](C)[C@@H](CC(=O)N[C@H]1CCCC[C@@H]1C(N)=O)NC(=O)[C@H]1CCCC[C@@H]1NC(=O)[C@H]1CCCC[C@@H]1NC(=O)C[C@@H](NC(=O)[C@H]1CCCC[C@@H]1N)[C@@H](C)CC
24 µM

Note: attention shifts to another entry.
Measured Kd for this entry NC(=O)[C@H]1CCCC[C@@H]1NC(=O)C[C@H](Cc1ccccc1)NC(=O)[C@H]1CCCC[C@@H]1NC(=O)[C@H]1CCCC[C@@H]1NC(=O)C[C@H](Cc1c[nH]c2ccccc12)NC(=O)[C@H]1CCCC[C@@H]1N on Gal-1 (Homo sapiens): 38 µM
